We begin with a simple list: items and their reported % Inhibition of VEGF165-mediated pTyr Activity, n = 2.
Biological target: human KDR (VEGFR2) on cells (human, UniProt P35968 20-1356); note: test concentration or dose not given here
Sequence (P35968 20-1356): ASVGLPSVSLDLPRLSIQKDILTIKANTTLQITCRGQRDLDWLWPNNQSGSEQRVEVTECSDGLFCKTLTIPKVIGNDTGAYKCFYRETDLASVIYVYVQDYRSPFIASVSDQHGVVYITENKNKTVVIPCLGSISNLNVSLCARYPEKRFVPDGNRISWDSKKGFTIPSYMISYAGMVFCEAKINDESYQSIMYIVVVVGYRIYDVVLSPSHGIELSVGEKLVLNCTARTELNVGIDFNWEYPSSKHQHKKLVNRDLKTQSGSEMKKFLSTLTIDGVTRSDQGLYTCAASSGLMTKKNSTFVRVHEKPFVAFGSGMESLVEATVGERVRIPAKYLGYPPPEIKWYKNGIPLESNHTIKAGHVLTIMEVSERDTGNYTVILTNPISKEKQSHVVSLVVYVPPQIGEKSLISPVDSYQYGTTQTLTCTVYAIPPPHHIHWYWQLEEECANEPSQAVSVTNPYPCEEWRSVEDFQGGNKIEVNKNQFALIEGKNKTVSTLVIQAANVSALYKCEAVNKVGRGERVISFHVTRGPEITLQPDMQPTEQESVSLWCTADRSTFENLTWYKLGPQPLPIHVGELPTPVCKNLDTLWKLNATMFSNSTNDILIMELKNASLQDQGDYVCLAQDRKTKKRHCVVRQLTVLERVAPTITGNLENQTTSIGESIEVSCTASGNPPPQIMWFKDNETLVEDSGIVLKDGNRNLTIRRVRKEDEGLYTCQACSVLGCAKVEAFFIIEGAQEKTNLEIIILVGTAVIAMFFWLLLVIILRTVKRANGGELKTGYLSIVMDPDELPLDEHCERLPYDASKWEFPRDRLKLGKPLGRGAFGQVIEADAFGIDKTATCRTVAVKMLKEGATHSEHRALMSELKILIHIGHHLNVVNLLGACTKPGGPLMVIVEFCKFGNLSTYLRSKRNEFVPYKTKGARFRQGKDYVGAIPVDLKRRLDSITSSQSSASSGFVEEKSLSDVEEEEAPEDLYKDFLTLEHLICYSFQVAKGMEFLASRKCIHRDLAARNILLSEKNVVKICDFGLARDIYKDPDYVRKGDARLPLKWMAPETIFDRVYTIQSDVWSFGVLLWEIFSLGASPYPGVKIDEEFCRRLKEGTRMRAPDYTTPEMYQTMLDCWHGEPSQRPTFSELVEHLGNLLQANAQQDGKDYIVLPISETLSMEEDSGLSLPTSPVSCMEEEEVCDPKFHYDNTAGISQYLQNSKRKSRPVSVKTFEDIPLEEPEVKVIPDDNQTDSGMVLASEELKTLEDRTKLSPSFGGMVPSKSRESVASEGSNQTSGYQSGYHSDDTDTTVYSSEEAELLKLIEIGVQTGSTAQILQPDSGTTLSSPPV
Assay: cell-based or functional assay
readout_label: % Inhibition of VEGF165-mediated pTyr Activity, n = 2

binder	value_observed
anti-KDR monoclonal antibody 24C9 (antibody, V domains shown, Fully human mAb from XenoMouse (IgG2 or IgG4 strain); hybridoma supernatant) VH: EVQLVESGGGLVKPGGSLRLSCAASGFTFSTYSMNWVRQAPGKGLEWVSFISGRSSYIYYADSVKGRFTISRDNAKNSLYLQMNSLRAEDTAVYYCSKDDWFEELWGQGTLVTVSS VL: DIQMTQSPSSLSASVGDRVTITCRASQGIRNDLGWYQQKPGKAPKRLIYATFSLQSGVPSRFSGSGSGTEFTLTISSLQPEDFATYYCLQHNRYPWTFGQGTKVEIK	45%
anti-KDR monoclonal antibody 27A3 (antibody, V domains shown, Fully human mAb from XenoMouse (IgG2 or IgG4 strain); hybridoma supernatant) VH: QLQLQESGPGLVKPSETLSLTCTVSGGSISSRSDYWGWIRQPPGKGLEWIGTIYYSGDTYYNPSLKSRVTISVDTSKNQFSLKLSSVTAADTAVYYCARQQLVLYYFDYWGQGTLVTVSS VL: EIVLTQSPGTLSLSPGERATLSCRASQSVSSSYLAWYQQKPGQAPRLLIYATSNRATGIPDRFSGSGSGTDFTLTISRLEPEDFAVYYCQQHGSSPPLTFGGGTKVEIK	68%
